test system: 885512-296-R-J2-PDC complex spheroid growth, % test/control; test: Anticancer human tumor 885512-296-R-J2-PDC patient-derived breast carcinoma cell line growth inhibition [AhR]; conditions: second compound 1 µM; first compound 0.1 µM; stronger effect = lower value;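 also: spheroids exposed to compounds for seven days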
experimentalEndpoint: viability, T/C (%)
Supply the numeric figure in %, leaving out any unit text.

| compound | measuredValue |
| --- | --- |
| NS(=O)(=O)OCC1CC(n2ccc3c(NC4CCc5ccccc54)ncnc32)CC1O (stereo unspecified) + CC(CO)NC(=O)c1cc(-c2ccc(Cl)cc2)nn(-c2cnn(C)c2)c1=O | 50.3 |
| COc1ccc([C@@H](O)c2cc(-c3ncnc4cc(N5CCOCC5)ccc34)c(F)cc2Cl)nn1 + Cc1cncc(-c2nc(NCCc3c[nH]c4ccccc34)c3ncn(C(C)C)c3n2)c1 | 78.4 |
| Cn1ncnc1C1c2n[nH]c(=O)c3cc(F)cc(c23)NC1c1ccc(F)cc1 (stereo unspecified) + Cc1ccccc1N=Nc1ccc(NC(=O)c2ccnn2C)c(C)c1 | 53.8 |

Prompt: Give measured viability, T/C for O=C(C=Cc1cccc(S(=O)(=O)Nc2ccccc2)c1)NO + Cc1ccccc1N=Nc1ccc(NC(=O)c2ccnn2C)c(C)c1 (885512-296-R-J2-PDC complex spheroid growth, % test/control).
Response: 85.5

Prompt: Give measured viability, T/C for Nc1ncn(C2CC(O)C(CO)O2)c(=O)n1 (stereo unspecified) + Cc1ccccc1N=Nc1ccc(NC(=O)c2ccnn2C)c(C)c1 (885512-296-R-J2-PDC complex spheroid growth, % test/control).
Response: 106

Prompt: Give measured viability, T/C for CC(C)c1c(-c2ccccc2)nc2c(C#N)c[nH]n2c1=O + Cc1ccccc1N=Nc1ccc(NC(=O)c2ccnn2C)c(C)c1 (885512-296-R-J2-PDC complex spheroid growth, % test/control).
Response: 94.4

Prompt: Give measured viability, T/C for Cn1ncnc1C1c2n[nH]c(=O)c3cc(F)cc(c23)NC1c1ccc(F)cc1 (stereo unspecified) + Cc1cncc(-c2nc(NCCc3c[nH]c4ccccc34)c3ncn(C(C)C)c3n2)c1 (885512-296-R-J2-PDC complex spheroid growth, % test/control).
Response: 51.8

Prompt: Give measured viability, T/C for O=C(C=Cc1cccc(S(=O)(=O)Nc2ccccc2)c1)NO + Cc1cncc(-c2nc(NCCc3c[nH]c4ccccc34)c3ncn(C(C)C)c3n2)c1 (885512-296-R-J2-PDC complex spheroid growth, % test/control).
Response: 72.5

Prompt: Give measured viability, T/C for CC(C)c1c(-c2ccccc2)nc2c(C#N)c[nH]n2c1=O + CC(CO)NC(=O)c1cc(-c2ccc(Cl)cc2)nn(-c2cnn(C)c2)c1=O (885512-296-R-J2-PDC complex spheroid growth, % test/control).
Response: 96.4

Prompt: Give measured viability, T/C for Nc1ccn(C2OC(CO)C(O)C2(F)F)c(=O)n1 (stereo unspecified) + Cc1cncc(-c2nc(NCCc3c[nH]c4ccccc34)c3ncn(C(C)C)c3n2)c1 (885512-296-R-J2-PDC complex spheroid growth, % test/control).
Response: 3.69

Prompt: Give measured viability, T/C for O=C(c1cc(Cc2n[nH]c(=O)c3ccccc23)ccc1F)N1CCN(C(=O)C2CC2)CC1 + CC(CO)NC(=O)c1cc(-c2ccc(Cl)cc2)nn(-c2cnn(C)c2)c1=O (885512-296-R-J2-PDC complex spheroid growth, % test/control).
Response: 102
